# Protocol text: OD615 S. cerevisiae growth inhibition, permissive medium, pilot counter-assay, permissive growth control for S. cerevisiae lifespan shortening project (AID 705)
# Experimental context: OD615, 24 h, at 10 µM, hits give high values
Measured property: growth inhibition (%)

- Molecule: "COc1ccc(-n2c(SCC(=O)Nc3ccccc3)nc3c(c2=O)SCC3)cc1"
  Measured property: "growth inhibition"
  Measurement units: "%"
  Observed measurement: -1.34
- Molecule: "CCn1cc(C(=O)N2CCN(Cc3ccc4c(c3)OCO4)CC2)c2cc(OC)c(OC)cc2c1=O"
  Measured property: "growth inhibition"
  Measurement units: "%"
  Observed measurement: -9.86
- Molecule: "O=c1[nH]c2ccc(Cl)cc2c(-c2ccccc2)c1N1CCOCC1"
  Measured property: "growth inhibition"
  Measurement units: "%"
  Observed measurement: -4.65
- Molecule: "CCOc1ccc(-n2c(SCC(=O)NCc3ccco3)nc3c([nH]c4ccccc43)c2=O)cc1"
  Measured property: "growth inhibition"
  Measurement units: "%"
  Observed measurement: -2.76
- Molecule: "COCCCNc1ncnc2nc[nH]c12"
  Measured property: "growth inhibition"
  Measurement units: "%"
  Observed measurement: 4.6
- Molecule: "CCOC(=O)c1c(CN(CC)CC)oc2cc(Br)c(O)cc12"
  Measured property: "growth inhibition"
  Measurement units: "%"
  Observed measurement: -0.115
- Molecule: "O=C(Nc1ccccc1Cl)N1CCN(c2ccc3nnc(-c4ccccc4)n3n2)CC1"
  Measured property: "growth inhibition"
  Measurement units: "%"
  Observed measurement: 6.99
- Molecule: "COc1ccccc1-c1nnc(NC(=O)C(C)SC2=NCCS2)s1 (stereo not given)"
  Measured property: "growth inhibition"
  Measurement units: "%"
  Observed measurement: 5.92
- Molecule: "c1ccc(CN2CCN(c3nc4ccccc4n4cnnc34)CC2)cc1"
  Measured property: "growth inhibition"
  Measurement units: "%"
  Observed measurement: -4.76
- Molecule: "Cc1cc(C(F)(F)F)n2ncc(C(=O)O)c2n1"
  Measured property: "growth inhibition"
  Measurement units: "%"
  Observed measurement: 2.26
- Molecule: "COc1ccc(C(=O)NCC(c2cccnc2)N2CCN(c3ccc(F)cc3)CC2)cc1OC (stereo not given)"
  Measured property: "growth inhibition"
  Measurement units: "%"
  Observed measurement: -12.2
- Molecule: "Cn1cc(SCC(=O)N2CCN(c3ccccc3)CC2)c2ccccc21"
  Measured property: "growth inhibition"
  Measurement units: "%"
  Observed measurement: -0.395
- Molecule: "CC(=O)c1ccc(Nc2cc(C)nc3nc(C)nn23)cc1"
  Measured property: "growth inhibition"
  Measurement units: "%"
  Observed measurement: -0.07
- Molecule: "CCn1nc(C(=O)OCC(=O)c2ccc3c(c2)OCCO3)c2ccccc2c1=O"
  Measured property: "growth inhibition"
  Measurement units: "%"
  Observed measurement: -8.66
- Molecule: "COCCOC(=O)C1=C(C)NC2=C(C(=O)CCC2)C1c1ccc(N(C)C)cc1 (stereo not given)"
  Measured property: "growth inhibition"
  Measurement units: "%"
  Observed measurement: -4.38
- Molecule: "Cc1ccc(C(C(=O)NC2CCCC2)N2CCCCC2)cc1 (stereo not given)"
  Measured property: "growth inhibition"
  Measurement units: "%"
  Observed measurement: -2.54
- Molecule: "O=C(C1CCCN1S(=O)(=O)c1cccc2cccnc12)N1CCc2ccccc2C1 (stereo not given)"
  Measured property: "growth inhibition"
  Measurement units: "%"
  Observed measurement: -8.21
- Molecule: "Cc1ccc(OS(=O)Nc2cccc3nccnc23)cc1 (stereo not given)"
  Measured property: "growth inhibition"
  Measurement units: "%"
  Observed measurement: 1.61
- Molecule: "CCCc1nc(N2CCN(C)CC2)c2sc(=S)n(-c3ccccc3)c2n1"
  Measured property: "growth inhibition"
  Measurement units: "%"
  Observed measurement: -8.52
- Molecule: "CC(C)(C)n1nc2c(c1NC(=O)c1ccccc1F)CS(=O)C2 (stereo not given)"
  Measured property: "growth inhibition"
  Measurement units: "%"
  Observed measurement: 1.35
- Molecule: "Cn1c(Cn2c(=O)sc3ccccc32)nnc1SCC(N)=O"
  Measured property: "growth inhibition"
  Measurement units: "%"
  Observed measurement: -17.4
- Molecule: "Brc1ccc(OCCOCCN2CCOCC2)cc1"
  Measured property: "growth inhibition"
  Measurement units: "%"
  Observed measurement: -13.4
- Molecule: "CCOC(=O)N1CCC(N2C(=O)c3cc(C(=O)NC4CCCCC4)ccc3C2O)CC1 (stereo not given)"
  Measured property: "growth inhibition"
  Measurement units: "%"
  Observed measurement: -2.13
- Molecule: "COc1ccc(NC(=O)CSc2nnc(-c3ccc(C)cc3)n2N)cc1"
  Measured property: "growth inhibition"
  Measurement units: "%"
  Observed measurement: -3.98
- Molecule: "CC(=O)c1cccc(NC(=O)c2cc3ccccn3n2)c1"
  Measured property: "growth inhibition"
  Measurement units: "%"
  Observed measurement: -5.62
- Molecule: "O=C1c2ccccc2C(=O)N1CCCc1nc2ccccc2c(=O)n1Cc1ccco1"
  Measured property: "growth inhibition"
  Measurement units: "%"
  Observed measurement: -12.9
- Molecule: "COCCCN1C(=O)C(O)=C(C(=O)c2ccc(C)o2)C1c1cccc(Br)c1 (stereo not given)"
  Measured property: "growth inhibition"
  Measurement units: "%"
  Observed measurement: -10.6
- Molecule: "COc1ccc(N(CC(=O)Nc2cc(OC)ccc2OC)S(=O)(=O)c2c(C)nn(C)c2C)cc1"
  Measured property: "growth inhibition"
  Measurement units: "%"
  Observed measurement: -7.47
- Molecule: "COc1ccc(NC(=O)C2CCN(S(=O)(=O)c3cccc4cccnc34)CC2)cc1"
  Measured property: "growth inhibition"
  Measurement units: "%"
  Observed measurement: -4.51
- Molecule: "COc1cccc(C(=O)Nc2cc(=O)n(C)c(=O)n2C)c1"
  Measured property: "growth inhibition"
  Measurement units: "%"
  Observed measurement: -11
- Molecule: "COc1ccc(C)c2sc(=NC(=O)c3ccc(C#N)cc3)n(C)c12"
  Measured property: "growth inhibition"
  Measurement units: "%"
  Observed measurement: -5.79
- Molecule: "CCOC(=O)C1CCN(S(=O)(=O)c2ccc(OCC)cc2)CC1"
  Measured property: "growth inhibition"
  Measurement units: "%"
  Observed measurement: -6.07
- Molecule: "COc1cc(OC)cc(C(=O)OCn2nnc3ccccc3c2=O)c1"
  Measured property: "growth inhibition"
  Measurement units: "%"
  Observed measurement: -9.62
- Molecule: "COC(=O)c1ccccc1NC(=O)CSc1nc(N)cc(N)n1"
  Measured property: "growth inhibition"
  Measurement units: "%"
  Observed measurement: -11.6
- Molecule: "C=CCn1c(=N)c(C(=O)OCC)cc2c(=O)n3cc(C)ccc3nc21"
  Measured property: "growth inhibition"
  Measurement units: "%"
  Observed measurement: 1.62
- Molecule: "CC(=O)CCC(=O)NCCc1ccccc1F"
  Measured property: "growth inhibition"
  Measurement units: "%"
  Observed measurement: -5.29
- Molecule: "CCCc1cc(C(=O)Nc2cccc(C(C)=O)c2)no1"
  Measured property: "growth inhibition"
  Measurement units: "%"
  Observed measurement: -4.86
- Molecule: "CC1CCCC(NC(=O)CN(C)S(=O)(=O)c2cccc3cccnc23)C1C (stereo not given)"
  Measured property: "growth inhibition"
  Measurement units: "%"
  Observed measurement: -10.9
- Molecule: "CSc1ccc(S(=O)(=O)Nc2ccc3c(c2)OCCO3)cc1"
  Measured property: "growth inhibition"
  Measurement units: "%"
  Observed measurement: -3.2
- Molecule: "CCOC(=O)c1ccc(NC(=O)CCC(=O)OC)cc1"
  Measured property: "growth inhibition"
  Measurement units: "%"
  Observed measurement: 5.7
- Molecule: "Cc1nn(C(=O)c2cccs2)c(N)c1-c1ccccc1"
  Measured property: "growth inhibition"
  Measurement units: "%"
  Observed measurement: 2.29
- Molecule: "CCOC(=O)C1CCN(C(=O)Cn2cc3c(n2)CCC(C)C3)CC1 (stereo not given)"
  Measured property: "growth inhibition"
  Measurement units: "%"
  Observed measurement: -5.55
- Molecule: "COc1ccc(C2c3c(oc4ccc(F)cc4c3=O)C(=O)N2CCN2CCOCC2)cc1OC (stereo not given)"
  Measured property: "growth inhibition"
  Measurement units: "%"
  Observed measurement: -0.77
- Molecule: "CCOc1ccccc1NC(=O)C1CCC(CNc2c(N3CCOCC3)c(=O)c2=O)CC1 (stereo not given)"
  Measured property: "growth inhibition"
  Measurement units: "%"
  Observed measurement: 0.95
- Molecule: "CCc1nc(SCC(=O)Nc2ccc(C(=O)O)cc2)n[nH]1"
  Measured property: "growth inhibition"
  Measurement units: "%"
  Observed measurement: 11.2
